experiment: Stability of crystal forms under stability test conditions (appearance, XRPD, HPLC); type: physicochemical; conditions: 90% RH; 10 d; HPLC
Where a name gives a salt, the structure may show the parent alone.
Property Label: Total impurities (%)

- Compound: "Cc1cc(Nc2ncc(Cl)c(Nc3ccccc3S(=O)(=O)C(C)C)n2)c(OC(C)C)cc1C1=CCN(C2CCOCC2)CC1.Cl"
  Value Reported: 0.28
- Compound: "Cc1cc(Nc2ncc(Cl)c(Nc3ccccc3S(=O)(=O)C(C)C)n2)c(OC(C)C)cc1C1=CCN(C2CCOCC2)CC1 [one equivalent of succinate crystal form D]"
  Value Reported: 0.73
- Compound: "Cc1cc(Nc2ncc(Cl)c(Nc3ccccc3S(=O)(=O)C(C)C)n2)c(OC(C)C)cc1C1=CCN(C2CCOCC2)CC1 [one equivalent of maleate crystal form A]"
  Value Reported: 0.25
- Compound: "Cc1cc(Nc2ncc(Cl)c(Nc3ccccc3S(=O)(=O)C(C)C)n2)c(OC(C)C)cc1C1=CCN(C2CCOCC2)CC1 [one equivalent of citrate crystal form B]"
  Value Reported: 0.18

###

assay: Stability of crystal forms under stability test conditions (appearance, XRPD, HPLC); type: physicochemical; conditions: 60° C.; 10 d; HPLC
Structures can show the parent of a compound that is named as a salt.
Quick reference for Total impurities among some molecules

- Molecule: "Cc1cc(Nc2ncc(Cl)c(Nc3ccccc3S(=O)(=O)C(C)C)n2)c(OC(C)C)cc1C1=CCN(C2CCOCC2)CC1 [one equivalent of succinate crystal form D]"
  Unit Of Measure: "%"
  Total impurities: 0.69
- Molecule: "Cc1cc(Nc2ncc(Cl)c(Nc3ccccc3S(=O)(=O)C(C)C)n2)c(OC(C)C)cc1C1=CCN(C2CCOCC2)CC1.Cl"
  Unit Of Measure: "%"
  Total impurities: 0.23
- Molecule: "Cc1cc(Nc2ncc(Cl)c(Nc3ccccc3S(=O)(=O)C(C)C)n2)c(OC(C)C)cc1C1=CCN(C2CCOCC2)CC1 [one equivalent of citrate crystal form B]"
  Unit Of Measure: "%"
  Total impurities: 0.19
- Molecule: "Cc1cc(Nc2ncc(Cl)c(Nc3ccccc3S(=O)(=O)C(C)C)n2)c(OC(C)C)cc1C1=CCN(C2CCOCC2)CC1 [one equivalent of maleate crystal form A]"
  Unit Of Measure: "%"
  Total impurities: 0.21

###

Quick reference for Total impurities among some molecules
assay: Stability of crystal forms under stability test conditions (appearance, XRPD, HPLC); assay type: physicochemical; conditions: 40° C./75% RH; 10 d; HPLC
Counter-ions that a name gives are not always drawn.
Property Label: Total impurities (%)

- Molecule: "Cc1cc(Nc2ncc(Cl)c(Nc3ccccc3S(=O)(=O)C(C)C)n2)c(OC(C)C)cc1C1=CCN(C2CCOCC2)CC1 [one equivalent of succinate crystal form D]"
  Unit Of Measure: "%"
  Value Reported: 0.74
- Molecule: "Cc1cc(Nc2ncc(Cl)c(Nc3ccccc3S(=O)(=O)C(C)C)n2)c(OC(C)C)cc1C1=CCN(C2CCOCC2)CC1.Cl"
  Unit Of Measure: "%"
  Value Reported: 0.53
- Molecule: "Cc1cc(Nc2ncc(Cl)c(Nc3ccccc3S(=O)(=O)C(C)C)n2)c(OC(C)C)cc1C1=CCN(C2CCOCC2)CC1 [one equivalent of maleate crystal form A]"
  Unit Of Measure: "%"
  Value Reported: 0.14
- Molecule: "Cc1cc(Nc2ncc(Cl)c(Nc3ccccc3S(=O)(=O)C(C)C)n2)c(OC(C)C)cc1C1=CCN(C2CCOCC2)CC1 [one equivalent of citrate crystal form B]"
  Unit Of Measure: "%"
  Value Reported: 0.19

###

test: Stability of crystal forms under stability test conditions (appearance, XRPD, HPLC); type: physicochemical; settings: 0 d; HPLC
Structures can show the parent of a compound that is named as a salt.
Property Label: Total impurities (%)

- Molecule: "Cc1cc(Nc2ncc(Cl)c(Nc3ccccc3S(=O)(=O)C(C)C)n2)c(OC(C)C)cc1C1=CCN(C2CCOCC2)CC1.Cl"
  Value Reported: 0.10
- Molecule: "Cc1cc(Nc2ncc(Cl)c(Nc3ccccc3S(=O)(=O)C(C)C)n2)c(OC(C)C)cc1C1=CCN(C2CCOCC2)CC1 [one equivalent of citrate crystal form B]"
  Value Reported: 0.18
- Molecule: "Cc1cc(Nc2ncc(Cl)c(Nc3ccccc3S(=O)(=O)C(C)C)n2)c(OC(C)C)cc1C1=CCN(C2CCOCC2)CC1 [one equivalent of maleate crystal form A]"
  Value Reported: 0.12
- Molecule: "Cc1cc(Nc2ncc(Cl)c(Nc3ccccc3S(=O)(=O)C(C)C)n2)c(OC(C)C)cc1C1=CCN(C2CCOCC2)CC1 [one equivalent of succinate crystal form D]"
  Value Reported: 0.73
